# SYSTEM NAME: ScLsb4
# PROTOCOL TEXT: SPOT peptide array binding signal intensity (averaged, normalized) (arbitrary units (background-subtracted, floor 0; scale differs between SH3 domains)); higher = stronger binding of the SH3 domain to the peptide
For each record, write down the corresponding SPOT peptide array binding signal intensity.

The binder identified as "SLSRRRFSLPSMPNV" registered its SPOT peptide array binding signal intensity at 9.5

The binder identified as "MSPLGAPPPPPHKDH" registered its SPOT peptide array binding signal intensity at ≤ 0

The binder identified as "KFIPSRPAPKPPSSA" registered its SPOT peptide array binding signal intensity at 13

The binder identified as "YVRRRPRVRLEPLLS" registered its SPOT peptide array binding signal intensity at 29.5

The binder identified as "NILKRRPLKLEAPSK" registered its SPOT peptide array binding signal intensity at 2

The binder identified as "KTITLEVESSDTIDN" registered its SPOT peptide array binding signal intensity at ≤ 0

The binder identified as "SNRRPVPRRPSQPLN" registered its SPOT peptide array binding signal intensity at 1140
